This collection of values is drawn from the RNAGym collection of RNA variant scans (doi:10.7554/elife.80360).

B1: HDV Ribozyme (parent)
chain: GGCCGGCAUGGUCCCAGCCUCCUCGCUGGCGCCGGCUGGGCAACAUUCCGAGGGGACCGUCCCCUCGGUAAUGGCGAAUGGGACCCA

# Variants of: B1
# Protocol details: self-cleavage, relative activity (ratio to wild type); higher = more cleavage; co-transcriptional
Field: self-cleavage. Provide a value for each of the variants that follow.
Give bare numbers.

Return reported self-cleavage values for all items listed beneath this line.
1. C21U A70U
2. G50C A71C

*A*
[0.228, 0.252]

Return reported self-cleavage values for all items listed beneath this line.
1. C33G C75A
2. C13G G67C

*A*
0.0791
0.0665
